Measured self-cleavage kobs at 40 uM GlcN6P values are reported for all entries that follow.
B1: glmS ribozyme (parent)
chain: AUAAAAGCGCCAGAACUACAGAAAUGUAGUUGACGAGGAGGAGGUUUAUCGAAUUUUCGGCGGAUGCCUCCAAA

variants of: B1; test: self-cleavage kobs at 40 uM GlcN6P; higher = faster cleavage; RNA array; conditions: with glucosamine-6-phosphate
This sample holds only a part of the variants without activity.

As a guide, the following entries are already answered.
| mutantName | self-cleavage kobs at 40 uM GlcN6P |
| --- | --- |
| G13A C16A A52U | < 1e-05 s⁻¹ |
| A12U C16A | 9.36e-05 s⁻¹ |
| G32U C34U | < 1e-05 s⁻¹ |

If you can, please state the reported self-cleavage kobs at 40 uM GlcN6P value of U56G .
0.000527 s⁻¹

Could you tell me which self-cleavage kobs at 40 uM GlcN6P is on file for A6C A36U G37C G60U ?
< 1e-05 s⁻¹

Could you share which self-cleavage kobs at 40 uM GlcN6P value was measured for A12U G41C C58A ?
< 1e-05 s⁻¹

Entry U46G A48G has what self-cleavage kobs at 40 uM GlcN6P?
< 1e-05 s⁻¹

Give the measured self-cleavage kobs at 40 uM GlcN6P of G9U G35A .
< 1e-05 s⁻¹

Give its self-cleavage kobs at 40 uM GlcN6P value. Item: G44A G63A
< 1e-05 s⁻¹

Using the record for C16U G41A G59U , report its self-cleavage kobs at 40 uM GlcN6P.
< 1e-05 s⁻¹

So what's the measured self-cleavage kobs at 40 uM GlcN6P for this one? C8U C50U C58G C61U C67U C68G
0.000528 s⁻¹

Need self-cleavage kobs at 40 uM GlcN6P, item G7U C11G
< 1e-05 s⁻¹
